Where these numbers come from: FireProtDB (doi:10.1002/prot.340090203)

B1: Tryptophan synthase alpha chain, P0A877 (parent)
chain: MERYESLFAQLKERKEGAFVPFVTLGDPGIEQSLKIIDTLIEAGADALELGIPFSDPLADGPTIQNATLRAFAAGVTPAQCFEMLALIRQKHPTIPIGLLMYANLVFNKGIDEFYAQCEKVGVDSVLVADVPVEESAPFRQAALRHNVAPIFICPPNADDDLLRQIASYGRGYTYLLSRAGVTGAENRAALPLNHLVAKLKEYNAAPPLQGFGISAPDQVKAAIDAGAAGAISGSAIVKIIEQHINEPEKMLAALKVFVQPMKAATRS

# Variants of: B1
# Cond: Escherichia coli (strain K12); pH 9; Thermal; DSC; Sodium tetraborate 1 mM; reversible: yes; structure 1WQ5; whole UniProt chain shown
Measured metric: heat capacity change of unfolding (kcal/mol/K)
A number alone suffices; assume kcal/mol/K.

P132A    4.8
P132G    5.1
P207A    4.9
P96A    3.6

Now for a further variant.
# variant P57A ; its heat capacity change of unfolding = 4.7
